assay_explanation: NCI Yeast Anticancer Drug Screen. Data for the mec2-1 strain (AID 157)
recorded_conditions: S. cerevisiae mec2-1 strain, at 1.2 µM, hits give high values
About 79,000 compounds went through this panel and 15% of them were active in at least one assay; those are over-represented in the sample as a whole.
readout: growth inhibition (%)
Answers are plain numbers, in %.

CCn1c(O)c(C=Nc2ccccc2)s/c1=N/Nc1nc(-c2ccccc2)cs1	-6
CCN(CC)CCN(C)CCc1ccc(Br)cc1	10
NC1=NNC2(C(N)=N1)c1ccccc1-c1ccccc12	11

For each entry beneath this line, provide reported growth inhibition.
1. CCO/C(C)=C(/C#N)C(N)=S
2. Cc1cc(-c2cc(C)c(O)c(C(C)(C)C)c2)cc(C(C)(C)C)c1O
3. CCOC(=O)C#Cc1ccc([N+](=O)[O-])cc1
4. CCOc1c(N=Nc2ccccc2OC)c(C)nn1C(=S)S
5. C=C1C(=O)OC2CC1C(OC(C)=O)C/C(C)=C/CC/C(C)=C\CCC2(C)O (configuration not stated)
6. CCN(CC)CCNc1ccc([N+](=O)[O-])c2nc3ccccc3c(N)c12
7. CC(NCCN(C)C)C1CCC2C3CCc4cc(O)ccc4C3CCC12C (configuration not stated)
8. OCC(CO)C(c1cccc2ccccc12)c1cccc2ccccc12

[out]
-2
-30
4
-1
11
-13
2
-1

[in] So what's the measured growth inhibition for this one? C=C1CCC(O)C/C1=C/C=C1\CCCC2(C)C1CCC2C(C)CCCC(C)C (configuration not stated)
[out] -40

* * *

assay_explanation: NCI Yeast Anticancer Drug Screen. Data for the rad50EPP+ strain (AID 151);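 note: 0% = growth of vehicle-treated control cultures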
recorded_conditions: S. cerevisiae rad50 mutant strain, at 3.7 µM, hits give high values
Compounds without any hit were thinned out: in the full panel of roughly 79,000, 15% have a hit. The source made the active and inactive calls. Cut-off read from the data, not from the text of the source: active = growth inhibition above about 70%; inactive = the rest.
Kindly state growth inhibition for each of the entries shown.

Before answering, review these 3 worked examples.
CCOC1=C/C(=N\Nc2ccc([N+](=O)[O-])cc2)CCC1	20% (inactive)
O=[N+]([O-])c1cc(Cl)cnc1Br	71% (active)
COc1cc(C2c3cc4c(cc3OC(OC(C)=O)C2C)OCO4)cc(OC)c1OC (stereo unspecified)	-1% (inactive)

For each entry beneath this line, provide reported growth inhibition.
1. CCCCOP(=O)(CCCP(=O)(OCCCC)OCCCC)OCCCC
2. O=C(Oc1ccc2c(c1)CN(Cc1ccccc1)CO2)c1ccccc1
3. COc1cc2cc3c4cc(OC)c(OC)cc4cc[n+]3c(C)c2cc1OC

[out]
-4% (inactive)
-3% (inactive)
-17% (inactive)

* * *

Kindly state growth inhibition for each of the entries shown.
assay_explanation: NCI Yeast Anticancer Drug Screen. Data for the rad52 strain (AID 147);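 note: 0% = growth of vehicle-treated control cultures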
recorded_conditions: S. cerevisiae rad52 mutant growth inhibition; at 3.7 µM; hits give high values
Procedure: Growth inhibition of yeast strains with defined genetic alterations is measured as a screen for potential anti-cancer activity. Selected strains with alterations in DNA damage repair or cell cycle control were exposed to compounds and growth inhibition was measured relative to vehicle treated controls. The strain used in this assay is rad52
This is part of a sample that, as a whole, favours compounds with a hit. Of some 79,000 tested, about 15% had one in any assay.
One number for each entry, in %.

CN(C)CCCCN1c2ccccc2Sc2ccc(N=[N+]=[N-])cc21	37

For each entry beneath this line, provide reported growth inhibition.
1. CC(C)=NOC(=O)Nc1ccc(Cl)cc1
2. O=[N+]([O-])c1cccc2nc3ccccc3c(NCCCn3ccnc3[N+](=O)[O-])c12
3. CCOC(=O)CC1(C(=O)OCC)c2[nH]c3ccccc3c2CCN1Cc1ccccc1 (configuration not stated)
4. CC(=O)OC1CCC2(C)C(=CC(C3C=C4CC(OC(C)=O)CCC4(C)C4=C3C3CC5OC6(CCC(C)CO6)C(C)C5C3(C)CC4)C3=C2CCC2(C)C3CC3OC4(CCC(C)CO4)C(C)C32)C1 (configuration not stated)
5. CCCCNC1CCC2(SCCS2)c2[nH]c3ccccc3c21 (configuration not stated)
6. COC(=O)/C=C(/CC(=O)OC)C(=O)OC
7. O=P(NC1CCCCC1)(OCc1ccccc1)OCc1ccccc1

[out]
[-7, 65, 0, 3, 5, -1, 4]

* * *

assay_explanation: NCI Yeast Anticancer Drug Screen. Data for the wt1 strain (AID 149);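 note: 0% = growth of vehicle-treated wt1 cultures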
recorded_conditions: S. cerevisiae wt1 strain (SPY 50644) growth inhibition; at 11.0 µM; hits give high values
This is part of a sample that, as a whole, favours compounds with a hit. Of some 79,000 tested, about 15% had one in any assay.
readout: growth inhibition (%)
Numbers only, in %.

CCCCCCCCCCCC(O)S(=O)(=O)O (centres undefined)	-4
C#CCN(Cc1ccc2nc(N)[nH]c(=O)c2c1)c1ccc(C(=O)NC(CCC(=O)O)C(=O)O)cc1 (centres undefined)	15
Cc1cc(=O)oc2c(C)c3occc(=O)c3cc12	0
COc1ccc(C2C3=C(COC3=O)OC(C)(C)Oc3cc4c(cc32)OCO4)cc1OC (centres undefined)	13
CCOC1(c2cccc([N+](=O)[O-])c2)c2ccccc2Oc2ccccc21	4

For each entry beneath this line, provide reported growth inhibition.
1. CCOC(=O)c1[nH]cc(C)c1-c1cccn1-c1ccc(Cl)cc1[N+](=O)[O-]
2. Cc1c2cccc(Sc3ccccc3)c2c2c3c(cccc13)[S+](c1ccccc1)C2 (centres undefined)
3. CCCCNC1CCC2(SCCS2)c2[nH]c3ccccc3c21 (centres undefined)
4. CC(C)C(C)/C=C\C(C)C1CCC2C3=CC=C4CC(O)CCC4(C)C3CCC21C (centres undefined)

[out]
1: 16; 2: 96; 3: 0; 4: 0

For each entry beneath this line, provide reported growth inhibition.
1. O=C(Oc1ccc2c(c1)CN(Cc1ccccc1)CO2)c1ccccc1
2. c1ccc2c(c1)sc1c3cnccc3ccc21
3. COc1ccc(C(=O)Oc2ccccc2Br)cc1

[out]
1: 8; 2: 23; 3: -10

* * *

assay_explanation: NCI Yeast Anticancer Drug Screen. Data for the rad14 strain (AID 159);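 note: 0% = growth of vehicle-treated control cultures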
recorded_conditions: S. cerevisiae rad14 strain growth inhibition; at 33.0 µM; hits give high values
Description: Growth inhibition of yeast strains with defined genetic alterations is measured as a screen for potential anti-cancer activity. Selected strains with alterations in DNA damage repair or cell cycle control were exposed to compounds and growth inhibition was measured relative to vehicle treated controls. The strain used in this assay is rad14
About 79,000 compounds went through this panel and 15% of them were active in at least one assay; those are over-represented in the sample as a whole.
Kindly state growth inhibition for each of the entries shown.
Answers are plain numbers, in %.

Cc1nc2ccccc2nc1NNc1ccccc1	7
O=C(NCCCl)Sc1ccc(Cl)cc1	33
O=C1NC(=O)c2ccc([N+](=O)[O-])c3cccc1c23	55
COc1cc([C@@H]2c3cc4c(cc3[C@H](OC3OC5COC(C(C)C)OC5C(O)C3O)C3COC(=O)[C@@H]32)OCO4)cc(OC)c1O (some centres undefined)	-22

For each entry beneath this line, provide reported growth inhibition.
1. CC(C)(C)c1ccc(NS(=O)(=O)c2ccc(N)cc2)cc1
2. COc1cc(C2c3cc4c(cc3OC(OC(C)=O)C2C)OCO4)cc(OC)c1OC (centres undefined)
3. Oc1ccc(SCc2ccc(NCc3ccccc3)cc2)cc1
4. O=C(COC(=O)c1ccccc1)c1ccc(Br)cc1

[out]
2
-10
29
99

For each entry beneath this line, provide reported growth inhibition.
1. CCN(CC)CCNc1ccc([N+](=O)[O-])c2nc3ccccc3c(N)c12
2. CC(=O)ON=C1C=CC(=C(C#N)c2ccc(Cl)cc2)C=C1
3. Cc1cc(-c2cc(C)c(O)c(C(C)(C)C)c2)cc(C(C)(C)C)c1O
4. CCOC(=O)C1=C(C)NC(C)=C(C(=O)OCCNC(=O)c2ccc(N=[N+]=[N-])cc2)C1c1ccccc1C(F)(F)F (centres undefined)
5. CCCCc1ccc(-n2c(C)c(COC(=O)NC)c(COC(=O)NC)c2C)cc1
6. COc1nc2c(c(=O)n1C)N=C(c1ccccc1)[C@H](C(CC(=O)c1ccccc1)c1ccccc1)C(c1ccccc1)N2 (some centres undefined)

[out]
[-34, 22, 25, 8, 97, 31]

For each entry beneath this line, provide reported growth inhibition.
1. O=C(O)c1cc2ccccc2c2c1C(=O)c1ccccc1-2
2. CN(C)CCOC1(Cc2ccc(Cl)cc2Cl)CCC(C(C)(C)C)CC1 (centres undefined)

[out]
[94, 99]

* * *

assay_explanation: NCI Yeast Anticancer Drug Screen. Data for the bub3 strain (AID 167)
recorded_conditions: S. cerevisiae bub3 mutant strain, at 50.0 µM, hits give high values
This is part of a sample that, as a whole, favours compounds with a hit. Of some 79,000 tested, about 15% had one in any assay.
The following ranges of growth inhibition define the classes used here: lo = under 70%, mid = from 70% up to 90%, hi = 90% and over

Would you please look over these solved cases?
O=C1Nc2ccc(Br)cc2C1=Nc1ccc2c(c1)OCO2	lo
COC(C(O)CO)C(O)C(O)C(=O)NNc1ccccc1 (stereo unspecified)	hi
CC(=O)SC(C[N+](=O)[O-])c1ccccc1 (stereo unspecified)	hi
CC1=C(SCc2ccccc2)C(=O)c2ccccc2C1=O	mid
Cc1c(C)c(C)c(CSC(=N)N)c(C)c1C	mid
CCC1(OC(=O)CN2CCN(CCO)CC2)C(=O)OCc2c1cc1n(c2=O)Cc2cc3ccccc3nc2-1 (stereo unspecified)	lo

Here is the next item to consider.
[in] Sort Cc1ccc2nc(-c3cccc([N+](=O)[O-])c3)oc(=O)c2c1 into one of the categories.
[out] lo
